The measurements presented in this section are drawn from patent US20200131156A1.

# measurement target: hKv3.1b (Homo sapiens)
# Construct: expressed in transfected cells
# Sequence (P48547 1-585 isoform P48547-2): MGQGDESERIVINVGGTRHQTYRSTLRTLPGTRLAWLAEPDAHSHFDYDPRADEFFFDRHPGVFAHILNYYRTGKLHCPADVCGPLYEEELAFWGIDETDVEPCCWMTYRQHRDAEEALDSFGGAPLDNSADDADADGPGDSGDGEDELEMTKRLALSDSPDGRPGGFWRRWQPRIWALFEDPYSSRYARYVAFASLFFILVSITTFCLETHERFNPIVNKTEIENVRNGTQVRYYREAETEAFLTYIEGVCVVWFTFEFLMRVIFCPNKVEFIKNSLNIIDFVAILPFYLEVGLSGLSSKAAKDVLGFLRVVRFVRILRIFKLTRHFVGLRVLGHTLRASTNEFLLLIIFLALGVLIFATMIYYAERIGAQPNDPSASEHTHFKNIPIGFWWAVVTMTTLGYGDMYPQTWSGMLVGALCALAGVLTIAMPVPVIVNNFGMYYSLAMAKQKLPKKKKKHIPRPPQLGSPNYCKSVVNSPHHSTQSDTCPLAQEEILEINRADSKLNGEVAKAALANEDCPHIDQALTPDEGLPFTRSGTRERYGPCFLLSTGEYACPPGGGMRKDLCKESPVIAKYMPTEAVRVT
# experiment notes: Automated patch clamp (QPatch-16x) on HEK-293 cells stably expressing hKv3.1b
# Type: cell-based
# cond: maximum absolute hyperpolarizing shift of activation threshold at tested concentrations 0.37-30 μM
# Threshold Shift per record follows
Dear colleague, please return just the value in mV, with no unit written.

1. Cc1ccc(S(=O)(=O)n2ccc(C(=O)NCc3ccno3)c2)cc1 ... 15
2. Cc1ccc(S(=O)(=O)n2ccc(C(=O)NCc3cnsc3)c2)cc1 ... 15
3. Cc1cnc(CNC(=O)c2ccn(S(=O)(=O)c3cccc(F)c3)c2)cn1 ... 10

*Q* Please look at this compound and report its Threshold Shift: Cc1ccc(S(=O)(=O)n2ccc(C(=O)NCc3cnc4nccn4c3)c2)cc1
*A* 24

*Q* Please look at this compound and report its Threshold Shift: O=C(NCc1cnccn1)c1ccn(S(=O)(=O)c2ccc(F)cc2)c1
*A* 13

*Q* Please look at this compound and report its Threshold Shift: CNc1cnc(CNC(=O)c2ccn(S(=O)(=O)c3ccc(C)cc3F)c2)cn1
*A* 42

*Q* Please look at this compound and report its Threshold Shift: Cc1cc(C)c(S(=O)(=O)n2ccc(C(=O)NCc3cnc(C)cn3)c2)c(C)c1
*A* 24

*Q* Please look at this compound and report its Threshold Shift: Cc1ccc(S(=O)(=O)n2ccc(C(=O)NCc3ncccc3F)c2)cc1
*A* 16

*Q* Please look at this compound and report its Threshold Shift: COc1ccc(S(=O)(=O)n2ccc(C(=O)NCc3cnc(C)cn3)c2)cc1F
*A* 18
